Cited source for all entries: PubChem BioAssay (NCI)

# System: SK-MEL-2 melanoma
# Test: NCI-60 one-dose screen, 48 h
# Measurement Setup: 10 µM unless noted
This is part of a sample that, as a whole, favours compounds with a hit. Of some 83,000 tested, about 20% had one in any assay. Activity calls are given as the source filed them. The calls were made as follows: active = growth percent below 10; inactive = the rest.
Pick one and only one: active, inactive

q: Which result was noted for this compound in the test: "OCc1cc(CN2CCCCC2)c(O)c2ncccc12"
a: inactive

q: Which result was noted for this compound in the test: COC1/C=C/OC2(C)Oc3c(C)c(O)c4c(O)c(c(C=NOC(c5ccccc5)c5ccccc5)c(O)c4c3C2=O)NC(=O)/C(C)=C/C=C/C(C)C(O)C(C)C(O)C(C)C(OC(C)=O)C1C (stereo not drawn)
a: active

Continuing:
q: Which result was noted for this compound in the test: "CN1CCN(CCCN2c3ccccc3Sc3ccc(Cl)cc32)CC1"
a: inactive

q: Which result was noted for this compound in the test: O=C(/C=C/C12c3ccccc3C(c3ccccc31)C1C(=O)NC(=O)C12)c1ccncc1 (stereo not drawn)
a: inactive

q: Which result was noted for this compound in the test: "CC(C)(C)c1cc(C(C)(C)c2ccccc2)cc(Cc2cc(C(C)(C)c3ccccc3)cc(C(C)(C)C)c2O)c1O"
a: inactive

q: Which result was noted for this compound in the test: "CN1CCN(c2ccc(/C=C/C(=O)c3ccc(O)cc3)cc2)CC1"
a: inactive
